System: DMS 273 small cell lung
measurement.protocol: NCI tumour cell line growth inhibition, 48 h
Would you kindly list TGI for each of these compounds?
Give a bare numeral; the unit µM is implied.

Query: TGI; subject: "Cc1cc(NCCCCCCNc2cc(C)nc3cc(N(C)C)ccc23)c2ccc(N(C)C)cc2n1"
29.5

Looking for the measured TGI of "Nc1ccc2c(SCc3ccc([N+](=O)[O-])cc3)c3ccccc3nc2c1" , can you help?
39.2

Which measured TGI value corresponds to "[N-]=[N+]=CC(=O)c1ccccc1C#CCCc1ccccc1" ?
73.7

* * *

Tested on: T-47D breast
measurement.protocol: NCI tumour cell line growth inhibition, 48 h; in the data active = GI50 below about 0.43 µM; inactive = the rest
Would you mind answering with one of these outcomes? active, inactive

Entry "Cc1cc(Cl)ccc1Nc1nc(C(F)(F)F)ccc1C(=O)N/N=C/c1ccc(Cl)cc1" : call = ?
inactive

Any idea what this test logged for "CCOC(=O)c1cc2c(n1Cc1cccc(OC)c1)-c1oncc1CCC2" ?
inactive

Outcome logged for "COc1ccc(C(=O)/C=C/c2cccc([N+](=O)[O-])c2)c(OC)c1" in this assay:
inactive

In this assay, the call recorded for "COc1cccc2c1ccc1nc3cccc(C(=O)N[C@H](C)CN(C)C)c3nc12" was what?
active

What is the recorded call for this compound in the test? "NC(=O)c1ccccc1Nc1ccc2nnc(-c3ccncc3)n2n1"
inactive

// outcome(item) with item = "Cc1cc(NCCN(C(C)C)C(C)C)nc(/N=C(\N)Nc2ccc(Cl)c(C(F)(F)F)c2)n1"
active

* * *

Test system: OVCAR-3 ovarian
measurement.protocol: NCI tumour cell line growth inhibition, 48 h; in the data active = GI50 below about 0.43 µM; inactive = the rest
Tick one outcome: 1.0 = active, 0.0 = inactive

Fill in: this test's call for Cc1cc(O)c(C2=NN(c3ccc(S(N)(=O)=O)cc3)C(c3ccccc3Cl)C2)cc1Cl (stereo not drawn) is ___
0.0

Can you look up the reported call for COC(=O)[C@@]12OC[C@]34[C@H]([C@@H](O)[C@@H]1O)[C@@]1(C)[C@H](O)C(=O)C=C(C)[C@@H]1C[C@H]3OC(=O)C(OC(C)=O)[C@@H]24 (stereo partly drawn) for me?
1.0

Please state the recorded outcome for this molecule: "Cc1ccc(-c2nc(C#N)c(S(=O)(=O)n3nc(C)cc3N)o2)cc1"
0.0

Can you look up the reported call for "O=C(Nc1cccc(-n2cc(-c3ccncc3)c(-c3cc(O)cc(Cl)c3)n2)c1)Nc1ccc(Cl)c(C(F)(F)F)c1" for me?
0.0

# outcome recorded in this test, key = "O=S(=O)(Nc1ccc(Br)c(Cl)c1)c1ccc(-c2cnc(C3CC3)o2)cc1"
1.0

Per the records of this test, what outcome belongs to "N.N.N.N.N.[Cl-].[Co+3].c1ccc(-c2nn[n-]n2)cc1" ?
0.0

// return assay outcome for "COc1cccc(-c2nn(-c3ccccc3)cc2-c2ccnc(NCCCNC(=O)Nc3ccc(Cl)c(Cl)c3)c2)c1"
0.0

Check the results log: what was the call for "N#CCCN(CCCN(CCCN(C(=O)Nc1ccccc1)c1ccccc1)C(=O)Nc1ccccc1)C(=O)Nc1ccccc1" ?
0.0

* * *

Test system: HOP-62 NSCLC
measurement.protocol: NCI tumour cell line growth inhibition, 48 h
value.kind: TGI

May I ask what TGI has been recorded for "O=C(/C=C/c1ccc(O)c(-c2cc(C(=O)/C=C/c3ccc(O)cc3)c(O)cc2O)c1)c1ccc(O)cc1O" ?
> 50 µM

Dear colleague, I am looking for the recorded TGI of the following molecule: COc1ccc(C2CC(C)(O)Oc3cc4c(cc32)OCO4)cc1 (stereo unspecified)
> 100 µM

Quick one: TGI for COc1ccc(CC(=O)N2CCC3(C)CC(=O)CC=C23)cc1OC (stereo unspecified) ?
> 100 µM

# input molecule: "COc1cc(OC)nc(-n2c(N)c(C#N)c3ccc([N+](=O)[O-])cc3c2=O)n1" ; wanted: its TGI
> 100 µM

Please look up its TGI: "COc1cc2c(cc1O)CC[C@@H]1[C@@H]2CC[C@]2(C)[C@@H](OCCN(C)C)CC[C@@H]12"
1.66 µM

// returns reported TGI for input "CC1(N)CCN(c2cccnc2NC(=O)c2nc(-c3ncccc3C(F)(F)F)cnc2N)CC1"
> 100 µM

Reference source for all entries: PubChem BioAssay (NCI)
